What half-life was measured for each of the following?
Assay: Half life in human liver microsomes
Assay type: ADME
Numbers only, in min.

Value sought for every listed compound: half-life.
1. CC(C)[C@@H]1CN(c2ccc(F)c(S(C)(=O)=O)c2)CCN1c1ncc(CO)c(C(F)(F)F)n1
2. CC(C)[C@@H]1CN(c2ccc(CO)c(S(C)(=O)=O)c2)CCN1c1ncc(CO)c(C(F)(F)F)n1
3. CC(C)[C@@H]1CN(c2ccc(F)c(S(C)(=O)=O)c2)CCN1c1ncc(C(C)(C)O)c(C(F)(F)F)n1
4. CC(C)[C@@H]1CN(c2ccc(F)c(S(C)(=O)=O)c2)CCN1c1ncc(Cl)c(C(F)(F)F)n1

1. 22
2. 43
3. 56
4. 19

###

Molecular target: Oxysterols receptor LXR-beta (Homo sapiens, UniProt P55055)
Sequence (P55055 whole entry): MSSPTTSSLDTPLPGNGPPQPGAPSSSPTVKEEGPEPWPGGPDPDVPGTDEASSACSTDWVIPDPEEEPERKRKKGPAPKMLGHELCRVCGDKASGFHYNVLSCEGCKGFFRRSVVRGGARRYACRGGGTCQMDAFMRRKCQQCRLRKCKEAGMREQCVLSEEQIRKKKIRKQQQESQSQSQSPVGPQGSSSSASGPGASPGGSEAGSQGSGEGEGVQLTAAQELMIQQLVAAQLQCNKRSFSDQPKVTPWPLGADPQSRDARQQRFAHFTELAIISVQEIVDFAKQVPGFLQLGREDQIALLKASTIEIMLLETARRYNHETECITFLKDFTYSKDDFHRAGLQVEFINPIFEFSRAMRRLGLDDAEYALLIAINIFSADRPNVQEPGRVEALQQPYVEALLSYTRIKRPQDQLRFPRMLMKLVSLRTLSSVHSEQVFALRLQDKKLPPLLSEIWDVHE
Test: Agonist activity at human LXRbeta coexpressed in African green monkey CV1 cells by Gal4 responsive reporter gene assay
Assay type: cell-based, CV-1
PROPERTY_MEASURED: EC50 (nM)
Numbers only, in nM.

Need EC50 of C[C@H](CC[C@@H]1OC1(C)C)[C@H]1CC[C@H]2[C@@H]3CC=C4C[C@@H](O)CC[C@]4(C)[C@H]3CC[C@]12C [24(S),25-EPOXYCHOLESTEROL] , thanks.
168

###

Target: Oxysterols receptor LXR-alpha (Homo sapiens, UniProt Q13133)
Sequence (Q13133 whole entry): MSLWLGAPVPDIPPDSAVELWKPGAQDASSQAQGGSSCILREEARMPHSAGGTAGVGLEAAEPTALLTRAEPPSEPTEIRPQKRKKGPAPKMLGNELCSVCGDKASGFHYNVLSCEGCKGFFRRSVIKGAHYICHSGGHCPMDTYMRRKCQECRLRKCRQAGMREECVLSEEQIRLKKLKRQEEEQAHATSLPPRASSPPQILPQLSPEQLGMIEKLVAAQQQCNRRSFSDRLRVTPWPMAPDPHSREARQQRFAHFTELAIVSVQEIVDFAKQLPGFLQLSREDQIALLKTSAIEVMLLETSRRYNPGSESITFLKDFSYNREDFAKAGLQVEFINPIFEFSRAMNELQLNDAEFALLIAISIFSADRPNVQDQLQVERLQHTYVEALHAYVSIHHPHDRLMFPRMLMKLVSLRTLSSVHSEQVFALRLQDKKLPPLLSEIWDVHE
Experiment: Binding affinity to human LXRalpha
PROPERTY_MEASURED: pEC50
Numbers only, as −log10 of the molar value.

Need pEC50 of `O=C(O)Cc1cccc(OCCCN(Cc2cccc(C(F)(F)F)c2Cl)CC(c2ccccc2)c2ccccc2)c1` , thanks.
7.66

###

Molecular target: Nuclear receptor subfamily 1 group I member 2 (Homo sapiens)
Sequence (O75469 whole entry): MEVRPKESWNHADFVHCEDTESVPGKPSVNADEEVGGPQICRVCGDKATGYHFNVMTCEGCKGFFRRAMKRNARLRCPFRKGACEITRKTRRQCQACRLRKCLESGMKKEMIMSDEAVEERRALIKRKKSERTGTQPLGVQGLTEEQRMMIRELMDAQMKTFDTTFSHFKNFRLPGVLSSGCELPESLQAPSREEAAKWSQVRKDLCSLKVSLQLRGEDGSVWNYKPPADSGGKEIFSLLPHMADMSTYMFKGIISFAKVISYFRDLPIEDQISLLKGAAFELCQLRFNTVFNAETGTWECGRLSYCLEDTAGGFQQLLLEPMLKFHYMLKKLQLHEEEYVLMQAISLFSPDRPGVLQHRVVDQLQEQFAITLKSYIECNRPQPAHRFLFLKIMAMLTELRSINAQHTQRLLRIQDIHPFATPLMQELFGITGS
pIC50: −log10 of the molar value.
PROPERTY_MEASURED: pIC50

Need pIC50 of `CC(C)[C@@H]1CN(c2ccc(CO)c(S(C)(=O)=O)c2)CCN1c1ncc(CO)c(C(F)(F)F)n1` , thanks.
< 5.00

###

What half-life was measured for each of the following?
Assay: Half life in mouse liver microsomes
Format: ADME
One number for each entry, in min.

Look over these answered cases.
[
  {
    "CHEMICAL_STRUCTURE": "CC(C)[C@@H]1CN(c2cccc(S(C)(=O)=O)c2)CCN1c1nccc(C(F)(F)F)n1",
    "half-life / min": 8
  },
  {
    "CHEMICAL_STRUCTURE": "CC(C)[C@@H]1CN(c2ccc(F)c(S(C)(=O)=O)c2)CCN1c1ncc(CO)c(C(F)(F)F)n1",
    "half-life / min": 38
  },
  {
    "CHEMICAL_STRUCTURE": "CC(C)[C@@H]1CN(c2ccc(F)c(S(C)(=O)=O)c2)CCN1c1ncc(C(C)(C)O)c(C(F)(F)F)n1",
    "half-life / min": 72
  },
  {
    "CHEMICAL_STRUCTURE": "CC(C)[C@@H]1CN(c2ccc(F)c(S(C)(=O)=O)c2)CCN1c1nccc(C(F)(F)F)n1",
    "half-life / min": 11
  }
]

Need half-life of `CC(C)[C@@H]1CN(c2ccc(CO)c(S(C)(=O)=O)c2)CCN1c1ncc(CO)c(C(F)(F)F)n1` , thanks.
40
